- Tested on: SW 1271 complex tumor spheroid viability
- measurement notes: Anticancer human tumor SW 1271 cell line growth inhibition;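 further: spheroids exposed to agents for seven days before readout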;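 on viability, T/C: percent of DMSO vehicle control luminescence so 100% = vehicle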
- cond: second compound 0.0949 µM; first compound 0.316 µM; stronger effect = lower value
Entries and their measured viability, T/C follow.
Quick reminder: number only, in %, skip the unit.

Examples with answers:
compound | assayed system | parameter | measure unit | endpoint result
COc1cc(C)[nH]c(=O)c1CN1CCc2c(Cl)cc(C(OC)C3COC3)c(Cl)c2C1=O (stereo unspecified) + CC[C@@]1(O)C(=O)OCc2c1cc1n(c2=O)Cc2cc3c(CN(C)C)c(O)ccc3nc2-1 | SW 1271 complex tumor spheroid viability | viability, T/C | % | 29.5
Cc1cc(C)c(CNC(=O)c2cc(-c3ccc(CN4CCOCC4)cc3)cc3c2cnn3C2CCCC2)c(=O)[nH]1 + CC[C@@]1(O)C(=O)OCc2c1cc1n(c2=O)Cc2cc3c(CN(C)C)c(O)ccc3nc2-1 | SW 1271 complex tumor spheroid viability | viability, T/C | % | 27.7
CC1COCCN1c1cc(-c2ccnn2C)c2ccnc(-c3ccn[nH]3)c2n1 (stereo unspecified) + CC[C@@]1(O)C(=O)OCc2c1cc1n(c2=O)Cc2cc3c(CN(C)C)c(O)ccc3nc2-1 | SW 1271 complex tumor spheroid viability | viability, T/C | % | 4.79
COc1ccc([C@@H](O)c2cc(-c3ncnc4cc(N5CCOCC5)ccc34)c(F)cc2Cl)nn1 + CC[C@@]1(O)C(=O)OCc2c1cc1n(c2=O)Cc2cc3c(CN(C)C)c(O)ccc3nc2-1 | SW 1271 complex tumor spheroid viability | viability, T/C | % | 25
[2H]c1nc(C)nc([2H])c1-c1cc(NC[C@@H](C)c2cccc3c(C(=O)NC)ccnc23)ncn1 + CC[C@@]1(O)C(=O)OCc2c1cc1n(c2=O)Cc2cc3c(CN(C)C)c(O)ccc3nc2-1 | SW 1271 complex tumor spheroid viability | viability, T/C | % | 30.1

Now for the compound whose viability, T/C we want.
Requested read-out: viability, T/C. Entry: CC(C)n1c(=O)n(C)c2cnc3cc(F)c(-c4ccc(OCCCN5CCCCC5)nc4)cc3c21 + CC[C@@]1(O)C(=O)OCc2c1cc1n(c2=O)Cc2cc3c(CN(C)C)c(O)ccc3nc2-1
23.2

###

- Tested on: SW 1271 complex tumor spheroid viability
- measurement notes: Anticancer human tumor SW 1271 cell line growth inhibition;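 further: spheroids exposed to agents for seven days before readout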;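 on viability, T/C: percent of DMSO vehicle control luminescence so 100% = vehicle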
- cond: second compound 0.0949 µM; first compound 0.1 µM; stronger effect = lower value
parameter: viability, T/C (%)
Quick reminder: number only, in %, skip the unit.

Examples with answers:
molecule | viability, T/C [%]
[2H]c1nc(C)nc([2H])c1-c1cc(NC[C@@H](C)c2cccc3c(C(=O)NC)ccnc23)ncn1 + CC[C@@]1(O)C(=O)OCc2c1cc1n(c2=O)Cc2cc3c(CN(C)C)c(O)ccc3nc2-1 | 32.6
COc1ccc([C@@H](O)c2cc(-c3ncnc4cc(N5CCOCC5)ccc34)c(F)cc2Cl)nn1 + CC[C@@]1(O)C(=O)OCc2c1cc1n(c2=O)Cc2cc3c(CN(C)C)c(O)ccc3nc2-1 | 27.6

Requested read-out: viability, T/C. Entry: COc1cc(C)[nH]c(=O)c1CN1CCc2c(Cl)cc(C(OC)C3COC3)c(Cl)c2C1=O (stereo not drawn) + CC[C@@]1(O)C(=O)OCc2c1cc1n(c2=O)Cc2cc3c(CN(C)C)c(O)ccc3nc2-1
30.5

###

Entries and their measured viability, T/C follow.
- Test system: SW 1271 complex tumor spheroid viability
- measurement notes: Anticancer human tumor SW 1271 cell line growth inhibition;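 further: spheroids exposed to agents for seven days before readout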;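 on viability, T/C: percent of DMSO vehicle control luminescence so 100% = vehicle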
- cond: second compound 0.003 µM; first compound 3.16 µM; stronger effect = lower value
Quick reminder: number only, in %, skip the unit.

Requested read-out: viability, T/C. Entry: CC(C)n1c(=O)n(C)c2cnc3cc(F)c(-c4ccc(OCCCN5CCCCC5)nc4)cc3c21 + CC[C@@]1(O)C(=O)OCc2c1cc1n(c2=O)Cc2cc3c(CN(C)C)c(O)ccc3nc2-1
19.3

Item: Cc1cc(C)c(CNC(=O)c2cc(-c3ccc(CN4CCOCC4)cc3)cc3c2cnn3C2CCCC2)c(=O)[nH]1 + CC[C@@]1(O)C(=O)OCc2c1cc1n(c2=O)Cc2cc3c(CN(C)C)c(O)ccc3nc2-1
45.5

Item: COc1cc(C)[nH]c(=O)c1CN1CCc2c(Cl)cc(C(OC)C3COC3)c(Cl)c2C1=O (stereo not given) + CC[C@@]1(O)C(=O)OCc2c1cc1n(c2=O)Cc2cc3c(CN(C)C)c(O)ccc3nc2-1
85.3

Item: CC1COCCN1c1cc(-c2ccnn2C)c2ccnc(-c3ccn[nH]3)c2n1 (stereo not given) + CC[C@@]1(O)C(=O)OCc2c1cc1n(c2=O)Cc2cc3c(CN(C)C)c(O)ccc3nc2-1
1.84

Item: COc1ccc([C@@H](O)c2cc(-c3ncnc4cc(N5CCOCC5)ccc34)c(F)cc2Cl)nn1 + COc1cc2c(cc1O)CCNC21CSC2c3c(OC(C)=O)c(C)c4c(c3C(COC1=O)N1C(O)C3Cc5cc(C)c(OC)c(O)c5C(C21)N3C)OCO4
0.09

###

Entries and their measured viability, T/C follow.
- Tested on: SW 1271 complex tumor spheroid viability
- measurement notes: Anticancer human tumor SW 1271 cell line growth inhibition;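 further: spheroids exposed to agents for seven days before readout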;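 on viability, T/C: percent of DMSO vehicle control luminescence so 100% = vehicle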
- cond: second compound 30 pM; first compound 0.1 µM; stronger effect = lower value
Quick reminder: number only, in %, skip the unit.

compound | endpoint result
CC(C)n1c(=O)n(C)c2cnc3cc(F)c(-c4ccc(OCCCN5CCCCC5)nc4)cc3c21 + COc1cc2c(cc1O)CCNC21CSC2c3c(OC(C)=O)c(C)c4c(c3C(COC1=O)N1C(O)C3Cc5cc(C)c(OC)c(O)c5C(C21)N3C)OCO4 | 57.5

Requested read-out: viability, T/C. Entry: CC1COCCN1c1cc(-c2ccnn2C)c2ccnc(-c3ccn[nH]3)c2n1 (configuration not stated) + COc1cc2c(cc1O)CCNC21CSC2c3c(OC(C)=O)c(C)c4c(c3C(COC1=O)N1C(O)C3Cc5cc(C)c(OC)c(O)c5C(C21)N3C)OCO4
12.5

###

- Test system: SW 1271 complex tumor spheroid viability
- measurement notes: Anticancer human tumor SW 1271 cell line growth inhibition; active = viability on the fitted dose curve at most 10% of control; inactive = the rest;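 further: spheroids exposed to agents for seven days before readout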
- cond: second compound 0.003 µM; first compound 10 µM
Choose one outcome from this list and give only that: active, inactive

Sample answers from the record:
compound | qualitative label
Cc1cc(C)c(CNC(=O)c2cc(-c3ccc(CN4CCOCC4)cc3)cc3c2cnn3C2CCCC2)c(=O)[nH]1 + COc1cc2c(cc1O)CCNC21CSC2c3c(OC(C)=O)c(C)c4c(c3C(COC1=O)N1C(O)C3Cc5cc(C)c(OC)c(O)c5C(C21)N3C)OCO4 | active
[2H]c1nc(C)nc([2H])c1-c1cc(NC[C@@H](C)c2cccc3c(C(=O)NC)ccnc23)ncn1 + CC[C@@]1(O)C(=O)OCc2c1cc1n(c2=O)Cc2cc3c(CN(C)C)c(O)ccc3nc2-1 | inactive

Now take the following compound into account.
So what was the verdict on CC(C)n1c(=O)n(C)c2cnc3cc(F)c(-c4ccc(OCCCN5CCCCC5)nc4)cc3c21 + CC[C@@]1(O)C(=O)OCc2c1cc1n(c2=O)Cc2cc3c(CN(C)C)c(O)ccc3nc2-1 in this test?
inactive

###

- Tested on: SW 1271 complex tumor spheroid viability
- measurement notes: Anticancer human tumor SW 1271 cell line growth inhibition;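 further: spheroids exposed to agents for seven days before readout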;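 on viability, T/C: percent of DMSO vehicle control luminescence so 100% = vehicle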
- cond: second compound 31.6 µM; first compound 0.0316 µM; stronger effect = lower value
parameter: viability, T/C (%)
Quick reminder: number only, in %, skip the unit.

Examples with answers:
compound | parameter | endpoint result
COc1ccc([C@@H](O)c2cc(-c3ncnc4cc(N5CCOCC5)ccc34)c(F)cc2Cl)nn1 + Cn1nnc2c(C(N)=O)ncn2c1=O | viability, T/C | 101
CC(C)n1c(=O)n(C)c2cnc3cc(F)c(-c4ccc(OCCCN5CCCCC5)nc4)cc3c21 + Cn1nnc2c(C(N)=O)ncn2c1=O | viability, T/C | 93
CC1COCCN1c1cc(-c2ccnn2C)c2ccnc(-c3ccn[nH]3)c2n1 (stereo unspecified) + Cn1nnc2c(C(N)=O)ncn2c1=O | viability, T/C | 55.4
Cc1cc(C)c(CNC(=O)c2cc(-c3ccc(CN4CCOCC4)cc3)cc3c2cnn3C2CCCC2)c(=O)[nH]1 + Cn1nnc2c(C(N)=O)ncn2c1=O | viability, T/C | 106
COc1cc(C)[nH]c(=O)c1CN1CCc2c(Cl)cc(C(OC)C3COC3)c(Cl)c2C1=O (stereo unspecified) + Cn1nnc2c(C(N)=O)ncn2c1=O | viability, T/C | 97.1

Requested read-out: viability, T/C. Entry: [2H]c1nc(C)nc([2H])c1-c1cc(NC[C@@H](C)c2cccc3c(C(=O)NC)ccnc23)ncn1 + Cn1nnc2c(C(N)=O)ncn2c1=O
110

###

- Test system: SW 1271 complex tumor spheroid viability
- measurement notes: Anticancer human tumor SW 1271 cell line growth inhibition;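 further: spheroids exposed to agents for seven days before readout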
- cond: curve of first compound; second compound 94.9 pM
Entries and their measured IC50 follow.
Quick reminder: number only, in nM, skip the unit.

compound | measure unit | IC50
Cc1sc2c(c1C)C(c1ccc(Cl)cc1)=NC(CC(=O)Nc1ccc(O)cc1)c1nnc(C)n1-2 (centres undefined) + COc1cc2c(cc1O)CCNC21CSC2c3c(OC(C)=O)c(C)c4c(c3C(COC1=O)N1C(O)C3Cc5cc(C)c(OC)c(O)c5C(C21)N3C)OCO4 | nM | 41.6
COc1ccc([C@@H](O)c2cc(-c3ncnc4cc(N5CCOCC5)ccc34)c(F)cc2Cl)nn1 + COc1cc2c(cc1O)CCNC21CSC2c3c(OC(C)=O)c(C)c4c(c3C(COC1=O)N1C(O)C3Cc5cc(C)c(OC)c(O)c5C(C21)N3C)OCO4 | nM | 168

Requested read-out: IC50. Entry: COc1cc(C)[nH]c(=O)c1CN1CCc2c(Cl)cc(C(OC)C3COC3)c(Cl)c2C1=O (centres undefined) + COc1cc2c(cc1O)CCNC21CSC2c3c(OC(C)=O)c(C)c4c(c3C(COC1=O)N1C(O)C3Cc5cc(C)c(OC)c(O)c5C(C21)N3C)OCO4
5220
